# Tested on: A/J mice
# methodDescription: Induction of myocarditis by immunization with SERCA2a peptides, histology
# Assay type: in vivo, mouse
# testConditions: individual peptide/CFA + PT, day 21, H&E; severe = 26 foci and above; number (%)
Ends that are not written are not given here.
metricName: Severity of lesions, Atria, Number of animals affected (%), Severe

{"substance": "SERCA2a 951-970: N-terminally acetylated 20-mer peptide of SERCA2a, residues 951-970 (Ac-PLPLIFQITPLNVTQWLMVL; UniProt P16615 951-970, looked up, fragment)", "testedTarget": "A/J mice", "result": "1 (10) %"}
{"substance": "SERCA2a 481-500: N-terminally acetylated 20-mer peptide of SERCA2a, residues 481-500 (Ac-KEFTLEFSRDRKSMSVYCTP; UniProt P16615 481-500, looked up, fragment)", "testedTarget": "A/J mice", "result": "0 (0) %"}
{"substance": "SERCA2a 31-50: N-terminally acetylated 20-mer peptide of SERCA2a, residues 31-50 (Ac-KLKERWGSNELPAEEGKTLL; UniProt P16615 31-50, looked up, fragment)", "testedTarget": "A/J mice", "result": "0 (0) %"}
{"substance": "SERCA2a 161-180: N-terminally acetylated 20-mer peptide of SERCA2a, residues 161-180 (Ac-ADIRLTSIKSTTLRVDQSIL; UniProt P16615 161-180, looked up, fragment)", "testedTarget": "A/J mice", "result": "0 (0) %"}
